- Protocol description: soluble fraction after stress (log2 fold change); higher = more stays soluble; pooled small domains, quantitative proteomics
- Measurement parameters: stress: 50 degC
# soluble fraction (log2) values compiled below
Just the number.

Biopolymer sequence	soluble fraction (log2)
HMLEAKQIQDNWESLIKLIEDNFTGERKENLLKMYTHFQDRMMFAPASSKEHFHNAFPGGYVEHVL	-0.293
HMEKDRDKRIRKRVLTALKRNDKKMTDKAFALLTSRIRDESILDQEVLKLIGYVGDRTTIDSKDINIVVAE	0.0525

The reported soluble fraction (log2) of the sequence `HMGAGKVVDGVTYDFVFDVDVADGQPPLRLPYNRGEDVYQAAERFILRNELPATYREQIVNFIVQNTPG` was -0.131

soluble fraction (log2) in this record for `HMNINLDINTYTVKELEKLLKLEVPYSDNNVFEKKNLMVKMIQTSTIAETKKEELYIFLDNIYNRLTNNLE` : -1.35

Noted for `HMNVEQQNQARENIKRLMEEQGLSQPKLSEKAGIAFGTLSRILRGKQDLTIQTAEKIADALGLSVYDLAE` : its soluble fraction (log2) reads 0.281

`HMQNFLSITSKEKIDIGNFQLISFKFENNLYDYVISGNKSELLIFQEKTIENNNENIEKITSNF` has a reported soluble fraction (log2) of -2.06

For this sequence ( `HMDGYTVYTNWGSDTNVARSDQQIQSQIPQLSGATIVGVWTKPIATGGTSYKIRYRTNSGAFTEIDVDQ` ), measured soluble fraction (log2) is -0.105

Entry `HMNQIFAPMPGLVLEVKLSEGDVVAEGESAIILEAMKMENIIKSPINGIVKKVHVKKGQTIEKNTLIISFK` — recorded soluble fraction (log2) = -1.15

Measured soluble fraction (log2), `HMVKPKIILADIGMITETDVTLAKASQAVLIAFNVKPSKEAKKLAEDENIKISTYNIIYEVLDFVKKSMSG` : 0.12

###

- Protocol description: soluble fraction after stress (log2 fold change); higher = more stays soluble; pooled small domains, quantitative proteomics
- Measurement parameters: stress: 50 degC
Let's look at some sequences and their measured soluble fraction (log2).
Respond numerically, and do not add a unit to the figure.

Record excerpt, results attached:
Biopolymer sequence	soluble fraction (log2)
HMDTAGSVAIVSKSVIENGFGEIKYKGTYFKAQSDVYIPKDQMVKVIGKGDEQGSFLIVEKLN	-0.0425
HMTTEIVRMKKDVKIGQEITAKDIEVVEVGAYNLPDEVIRSSEEVVGKYVSSELLKGEYVLPSKISDTP	0.0729
HMHPNPLTEQEIAVLKGIAQGLSNQEIADQLYLSNGTVRNYVTNILSKLDAGNRTEAANIAKESGW	0.143
HMEHAETDTRERILVVAERLFRQLGYQKTTVADIAKELRMSPANVYRFFDSKKSIHEGVARTL	-0.228
HMRKMNDAVFYVEMSRPKRGYYTATYKLITRNPNSLPEHEITRRFFQMLEETIRKNPPYYLWTH	-0.328
HMNILVAISDTGEIWINKRRVDARAVQANIERLHAENPQGTVVIQADKQATTETLIKVMDASRAAGVFDVS	-0.618
HMGPWTETAAKGDAVSKRMLITWLQENADAEFLAAQKLTGQATSVAKRVTKDQLVELYLSVTTAA	-0.53

Moving on to another sequence below.
The value of soluble fraction (log2) measured for the sequence `HMKARLRRVFQIYYGDAYSIMKALKETFPLQTIVHEPRTNSIVVDTPDEETATKIGDVVSAL` turned out to be -0.392

###

- Protocol description: soluble fraction after stress (log2 fold change); higher = more stays soluble; pooled small domains, quantitative proteomics
- Measurement parameters: stress: 50 degC
Let's look at some sequences and their measured soluble fraction (log2).
Response field accepts a number only; no unit should be typed.

Biopolymer sequence	soluble fraction (log2)
HMALLSNEDIMFNLEFNRDLAVASNDGVSRDEFLRNKYGISEEEYNMLRARYGDGLNAARIKEYVGQRD	0.104
HMKREWKDDDPTVPAGWKVAWTTTSDNRAKIAFMSPDKKIFHSRKSALQHMLAAGTYAQSDIEKMTKGL	-0.112
HMSELLIVGSEQDNTRLDRFLADQYEEYTRSFLQKLIDQGNVSINGISVKKSGIKLKENDEIAVTLPEPQ	0.389
HMDTNTIIGLRIKALRTEKKYTLKYLSENSGLSIGFLSQLERGMTSVAIDSLDKISKVLDVELSSFFN	-2.93

The recorded soluble fraction (log2) for `HMGATFITSSKDNAINIRQAAGTDSKVIETIKNGHILESSEKSGEWYKVTYYDSDIKKTFTGYIHNSQLK` is 0.159

Per the record, `HMGLPLETVVTHATKLEIVRDGRVSGSIGLSAGVKVDVIALEGDNLQVRYRSLSGRVPVAHTGLAALA` has soluble fraction (log2) of 0.105

Reported soluble fraction (log2) of `HMQSRYALLAGMLRARITEGDWVPGSAIPAETVLAKEHGVALGTMRQAIALLVSQGLLERQHGRGTFVRS` : -1.16

`HMVVVPPPATPKPGDVTGDNKINGYDLSILLSNWKRPGATLAQGDLNKDGVVNGLDLSIMLLNWG` has a reported soluble fraction (log2) of -0.0393

###

- Protocol description: soluble fraction after stress (log2 fold change); higher = more stays soluble; pooled small domains, quantitative proteomics
- Measurement parameters: stress: 50 degC
Each entry below lists one item and its recorded soluble fraction (log2) value.
Answer as a number with no unit attached.

Biopolymer sequence	Test value
HMGEKPTEITLSNAISVQELAEKLYVSETDIIRTLFLDGIIVNINQVLDLETAVKVGDQLGVTITIVE	-1.2

Could you now look at the following sequence, please?
According to the records, this sequence `HMSRGAIVTGTVIEKNQSGIYVDLGYKSDGIVPIEEFDGEESKYNVGDQIRVYVKKVDDGHGQLML` displays soluble fraction (log2) of 0.126

###

- Protocol description: soluble fraction after stress (log2 fold change); higher = more stays soluble; pooled small domains, quantitative proteomics
- Measurement parameters: stress: 50 degC
Endpoint: soluble fraction (log2)
Form rule: numeric answer, no unit written next to it.

// worked examples, soluble fraction (log2) included
Biopolymer sequence	soluble fraction (log2)
HMDGIGLRVRMIREGVGLTQKQLAEHLGMQRTALVQVEAGSRKLSASELIGVARFFNITVEQFLDPEK	-3.37
HMKDYKSALQELIQSGDKRVISYHTLKETGPSHNREFEAAVKLDGNIILGVGKGKTKKEAEQNAAHEALKK	0.172
HMSEFLTIVRAVYSGLSRRKVAAMHKVSRNTVSLYLRQARDQGWLTLEDLEKLDDLTVSQGVS	-2

// sample `HMPPAIKTLMFMIQNKSLLKSPKQLAVVQQQLKKIKGVRDVLILLEEGKVMLKVNKHETIHEASIIRLLGG` , its soluble fraction (log2) was -0.521

// field: soluble fraction (log2); key: `HMPMNISDIIKQAREELGMTQEDLAERLEVSRQAVSKWELGASVPSPENLRLLEELLGVELPAP` ; value = -0.0297

Measured soluble fraction (log2), `HMSSDLESVIGTHSQEANFALRSWGWIQPDETWKNLRPDQVSQILERANEFMAKAIESFANAQSE` : -0.14

Note to self: soluble fraction (log2) recorded for `HMDGSEYAGTVRLGDGTLQPVPRFETSNSETPKYLYLVMDVTHDPPVYILEHESAELKSVLGGLVLIGSYS` was 0.0759

Value of measured soluble fraction (log2) for the entry `HMFLSSEERRERIIEVLRQQDEVTVVELSHRLGVSEVTTRKDLQQLEEQGYLTRVRGGAVVSGRGQL` : -0.0183

Briefly, soluble fraction (log2) measured for `HMNNLSEELNVTFPRTRDQLLNILHYVQHKYGYISKVSMQEIGNHIKMPVSEIYGTVTSYSEFKI` : -1.54

Entry `HMKIQEVDYSTFLNMLNEKSIAQVEIQDNQIAFNSNQEGNKQIYVTGRIEEDTELVNRLQAAGVQFSRV` — recorded soluble fraction (log2) = 0.079

Per the records, this sequence ( `HMGSLGSLLKSVRNQRGLSRQQMAQSLNIGVRAIEQIEEGERKPDLELLNRYARGLMDPSVT` ) has soluble fraction (log2) equal to -0.0584

For record `HMTPTNILIVEDEKEIRRFVRTALESEGLRVFESETLQRGLIEAGTRKPDLIILDLGLPDGDGLSYIRDLR` the listed soluble fraction (log2) is -0.123

soluble fraction (log2) recorded for this sequence, `HMISVTNRTGTGLNDVKVEVFPVGRQMVFSATVFRVESEATNRFSLGELRGSDGTPFNQRVHRPESI` , is 0.188

Kindly note the recorded soluble fraction (log2) for `HMNDRLFQILYLLLEKGTMTAPELSRALEVSVRTIYRDIDALSLAGVPVYATQGKNGGVSLLPNY` , which is -1.24

So, `HMGGDFVEHLKDLASEAPVIRLVNTIIGRVIDLRASDIHLEPFDDGLHVRYRVDGVIHPGELVPPRLS` ? Its soluble fraction (log2) was 0.0558

soluble fraction (log2) reading for `HMSQLYINATDDGWVIGNLPADAREVLLTTLGGQVVARYHVTAPSLRVKAPRKGVYIVSVETA` : -1.12

Kindly note the recorded soluble fraction (log2) for `HMSMPEVLSDRELEIFRMIGTGMSTGDIAKKLNISVNTIESHRKKIKDKLGIQKGSELVKAAVQWVSTQQ` , which is -0.262
